From: paper PMC5540273

tested on: ROS1; details: concentration: 1 μM, replicates: in singlicate; n = 1;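 also: KINOMEscan kinase panel screen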
List of %Inh values.
observed_property: %Inh (%)

> print(dat)
                               smiles.input  readout.value
1  CN(C)CCNS(=O)(=O)c1ccc(-c2ccnc3[nH]ccc23)cc1             48
2  COc1cccc(NC(=O)NCCNc2ccnc(Nc3ccc(F)cc3)n2)c1              0
3  Cn1cc(-c2ccc3c(c2)CCN3C(=O)Cc2cc(F)cc(C(F)(F)F)c2)c2c(N)ncnc21             29
4  Cc1cccc(Nc2nc(N[C@H]3CCCC[C@H]3N)ncc2C(N)=O)c1.Cl             62
5  COc1cccc(CC(=O)N2CCc3cc(-c4cn(C)c5ncnc(N)c45)ccc32)c1              9
6  Cc1ccc(C)c(NC(=O)Nc2ccc(C)c(-c3ccc(C(=O)Nc4ccncc4)cc3)c2)c1              0
7  Fc1cc(Cl)ccc1Nc1ccnc2cc(-c3ccc(CN4CCOCC4)o3)ccc12              0
8  Cc1ccc(NC(=O)c2ccc(Cl)c(Cl)c2)cc1-c1ccc(C(=O)Nc2ccncc2)cc1             20

###

test system: FLT4; conditions: concentration: 1 μM, replicates: in singlicate; n = 1
observed_property: %Inh (%)

> print(dat)
                                   compound  target.desc  unit.text  readout.value
1  COc1ccc(C)c(Nc2ccnc(Nc3ccc(-c4cnc[nH]4)cc3)n2)c1.Cl [GW784041]         FLT4          %             10
2  COc1cccc2c(-c3ccncc3)c(-c3ccc(F)cc3)nn12 [GW468513]         FLT4          %             13
3  Cl.O=C(Nc1ccc(Oc2ccc3[nH]c(NC(=O)c4ccco4)nc3c2)cc1)Nc1cc(C(F)(F)F)ccc1F [GW683134]         FLT4          %           99.9
4  Nc1ncc(-c2ccc3nccc(-c4ccncc4)c3c2)cc1S(=O)(=O)N1CCCCC1 [GSK1693850]         FLT4          %              0
5  O=C(Nc1n[nH]c2nc(-c3ccccc3)ccc12)C1CC1 [SB-708999]         FLT4          %              4
6  Cc1ccc(Nc2ccnc(Nc3ccc(C)c(F)c3)n2)cc1O.Cl [GW582868]         FLT4          %             72
7  COc1cccc(CC(=O)N2CCc3cc(-c4cn(C)c5ncnc(N)c45)ccc32)c1 [GSK2608899]         FLT4          %              0
8  Cl.N#CCc1ccc(Nc2nccc(Nc3ccc(Oc4ccccc4)cc3)n2)cc1 [GW639905]         FLT4          %             12
9  Cl.Cl.NC(CNC(=O)c1cc(Br)c(-c2ccnc3[nH]ccc23)s1)c1ccccc1 (stereo not drawn) [GSK1322949]         FLT4          %             17

###

List of %Inh values.
test system: WNK3; conditions: concentration: 1 μM, replicates: in singlicate; n = 1
observed_property: %Inh (%)

> print(dat)
                                smiles.input  observed.property  unit.text  readout.value
 1  CN(c1ccc(F)c(NC(=O)c2cccc(OC(C)(C)C#N)c2Cl)c1)c1ccc2nc(NC(=O)C3CC3)sc2n1               %Inh          %              0
 2  O=C(O)C(F)(F)F.O=c1[nH]ccc2nc(N[C@@H]3CCNC3)nc(Nc3cc(Cl)cc(Cl)c3)c12               %Inh          %             30
 3  COc1cccc(NC(=O)NCCNc2ccnc(Nc3ccc(F)cc3)n2)c1               %Inh          %             22
 4  Cn1cc(-c2cnc(N)c3c(-c4ccc5c(c4)CCN5C(=O)Cc4ccccc4)csc23)cn1               %Inh          %              0
 5  Fc1cc(Cl)ccc1Nc1ccnc2cc(-c3ccc(CN4CCSCC4)o3)ccc12               %Inh          %             35
 6  COc1cc(Nc2nccc(N3CCC(NS(=O)(=O)c4ccc(NC(C)=O)cc4)CC3)n2)cc(OC)c1OC               %Inh          %             25
 7  Cc1ccc(NC(=O)c2cccc(N3CCCCC3)c2)cc1-c1ccc(C(=O)NCC2CC2)cc1               %Inh          %              2
 8  CC(C)(C)c1ccc(C(=O)Nc2cn3cc(-n4ccnc4)ccc3n2)cc1               %Inh          %              0
 9  Fc1cc(Cl)ccc1Nc1ccnc2cc(-c3ccc(CN4CCOCC4)o3)ccc12               %Inh          %              1
10  Cc1nn2c(=O)cc(N3CCO[C@H](C)C3)nc2n1Cc1cccc(Cl)c1Cl               %Inh          %              5
11  COC(=O)Nc1nc2ccc(Oc3ccc(CC(=O)Nc4cc(C(F)(F)F)ccc4F)cc3)cc2[nH]1               %Inh          %             21
12  COC(=O)Nc1nc2ccc(Oc3ccc(NC(=O)Nc4cc(C(F)(F)F)ccc4F)cc3)cc2[nH]1.Cl               %Inh          %             26
13     Cc1ccc(O)cc1Nc1ccnc2ccc(C(C)(C)C)cc12               %Inh          %             21
14  CCOc1nccc(-c2c(-c3ccc(F)cc3)ncn2C2CCNCC2)n1               %Inh          %              4
15  O=C(O)C(F)(F)F.O=c1[nH]ccc2nc(N[C@@H]3CCNC3)nc(Nc3ccc4c(c3)S(=O)(=O)CC4)c12               %Inh          %              0
16  CCNC(=O)/C=C/c1n[nH]c2cc(Sc3ccccc3C(=O)NC)ccc12               %Inh          %              0
17  COc1cccc2c(-c3ccncc3)c(-c3ccc(F)cc3)nn12               %Inh          %             31
